Cited source for all entries: patent US20240270701A1

Molecular target: B1-AR (Homo sapiens)
Construct: expressed in transfected cells; host or cells: CHO-K1
Sequence (P08588 whole entry, species assumed): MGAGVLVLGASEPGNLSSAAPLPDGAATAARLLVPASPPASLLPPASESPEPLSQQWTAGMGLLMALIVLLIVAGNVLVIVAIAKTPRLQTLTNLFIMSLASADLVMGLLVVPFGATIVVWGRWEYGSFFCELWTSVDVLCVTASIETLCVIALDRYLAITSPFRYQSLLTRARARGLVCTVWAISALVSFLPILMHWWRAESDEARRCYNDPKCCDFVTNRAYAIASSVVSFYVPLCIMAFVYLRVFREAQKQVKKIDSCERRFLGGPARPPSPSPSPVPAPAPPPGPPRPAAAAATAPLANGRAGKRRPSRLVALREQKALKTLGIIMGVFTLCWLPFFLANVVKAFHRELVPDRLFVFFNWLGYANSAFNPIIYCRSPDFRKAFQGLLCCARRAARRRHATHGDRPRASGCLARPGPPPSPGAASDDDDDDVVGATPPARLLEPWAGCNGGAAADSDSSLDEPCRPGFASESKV
Assay: cAMP Gs dynamic HTRF assay, cells expressing beta-adrenergic receptor (CHO-K1), B1-AR
Type: cell-based
Details: relative to full agonist isoproterenol, read-out: Emax (% iso) (%) [B1-AR]
measured.metric: Emax

Below, 8 compounds whose answers are already recorded.
Cc1ncccc1[C@@H](O)CNC1CC(F)(F)C1
< 50%
O[C@@H](CNC1CC1)c1cccc2[nH]nc(Cl)c12
70 to 90%
O[C@@H](CNC1CC1)c1cncc2[nH]ncc12
70 to 90%
CCC(C)(C)NC[C@H](O)c1ccc(F)c2[nH]ncc12
70 to 90%
CCC(C)(CC)NC[C@H](O)c1cc(F)cc2[nH]ncc12
> 90%
C[C@H](NC[C@H](O)c1cccc2c1C(F)(F)C(=O)N2)C(C)(C)C
50 to 70%
COc1ccc(C[C@@H](C)NC[C@H](O)c2ccc(F)c3[nH]ncc23)cc1
> 90%
Cc1c(F)cc([C@@H](O)CNC(C)(C)C)c2cn[nH]c12
70 to 90%

Now consider a different compound.
Incoming: Would you kindly share the measured Emax for `CC(C)(C)NC[C@@H](O)c1cccc(Br)n1` ?
Outgoing: 70 to 90%
